# Tested on: DU-145
# Assay Explanation: NCI tumour cell line growth inhibition, 48 h
The source made the active and inactive calls. No stated cut-off is given here; in the data, active = GI50 up to about 1.1 µM and inactive = higher.
Readout: GI50

Molecule | Tested Target | Readout Value
CC(C)=CCC[C@@H](C)c1c2ncc[nH]c-2c(C)c(=O)c1O | DU-145 | 31.6 µM (inactive)
COc1cc(C2SCC(=O)N2c2ccccn2)cc(OC)c1OC (centres undefined) | DU-145 | > 100 µM (inactive)
Cn1cc(C[C@@H](N)C(=O)O)c2ccccc21 [INDOXIMOD] | DU-145 | > 100 µM (inactive)
Nc1nc(-c2ccccc2)c(-c2ccccc2)c(-c2nc(N)nc(-c3ccccc3)c2-c2ccccc2)n1 | DU-145 | > 100 µM (inactive)
O=c1c(-c2ccccc2)c(SCCO)n(-c2ccccc2)c(=S)n1-c1ccccc1 | DU-145 | > 100 µM (inactive)
COC(=O)c1cc(C)ccc1CC(Cc1ccccc1C)C(=O)OC (centres undefined) | DU-145 | > 100 µM (inactive)
COc1ccc(/C=C2\CCC(CNc3ccc(S(N)(=O)=O)cc3)C2=O)cc1 (centres undefined) | DU-145 | > 53.8 µM (inactive)
O=C(O)c1ccccc1/C=N/N=C1c2ccccc2-c2ccccc21 | DU-145 | 42.7 µM (inactive)
O=C1CSC(c2ccc([N+](=O)[O-])cc2)N1c1ccc(-c2ccc(-n3c(-c4ccccc4)nc4ccccc4c3=O)cc2)cc1 (centres undefined) | DU-145 | > 100 µM (inactive)
CC(C)c1ccccc1SCc1cc(=O)cc(CSc2ccccc2C(C)C)o1 | DU-145 | 23.1 µM (inactive)
CC(C)N/C(=N\C#N)NS(=O)(=O)c1cnccc1NC1CCCCCCC1 | DU-145 | > 100 µM (inactive)
CC1(CC2=C(C(=O)NCCO[Si](C)(C)C(C)(C)C)C3(OCCO3)C2=O)OCCO1 | DU-145 | > 100 µM (inactive)
CCNC(=S)NNC(=O)CSc1nc2ccc(I)cc2c(=O)n1Cc1ccccc1 | DU-145 | > 79.4 µM (inactive)
CC1=CC(=O)CC(C)(C)C1(O)/C=C/C(C)=C/C(=O)O (centres undefined) | DU-145 | > 100 µM (inactive)
[N-]=[N+]=Nc1c(Cl)c(=O)n(-c2ccccc2)c2ccccc12 | DU-145 | 29.2 µM (inactive)
CC[C@H](NC1=C(Cl)C(=O)c2c(O)ccc(O)c2C1=O)C(=O)OC | DU-145 | > 10 µM (inactive)
CCOC(=O)Oc1ccc(C(CNC(C)C)OC(=O)OCC)cc1OC(=O)OCC (centres undefined) | DU-145 | > 100 µM (inactive)
CCC1(c2ccccc2)C(=O)N=C(c2ccccc2)N1CCc1ccccc1 (centres undefined) | DU-145 | > 100 µM (inactive)
O=C1NCC(NC(=O)C(F)(F)F)c2c(Br)sc(Br)c21 (centres undefined) | DU-145 | > 100 µM (inactive)
Cc1sc2nc3n(c(=O)c2c1C)N=C(c1ccc(Cl)cc1)CS3 | DU-145 | > 100 µM (inactive)
C=C(C)[C@@H]1CC[C@]2(C(=O)O)CC[C@]3(C)[C@H](CC[C@@H]4[C@@]5(C)CC[C@H](C(=O)/C=C/c6ccc(O)cc6)C(C)(C)[C@@H]5CC[C@]43C)[C@@H]12 | DU-145 | 5.73 µM (inactive)
NNc1nncc2[nH]nnc12 | DU-145 | > 100 µM (inactive)
Cc1ccc2[nH]c3[nH]c(=S)[nH]c(=O)c3c2c1 | DU-145 | > 100 µM (inactive)
O=C(c1ccccc1)n1cc(-c2ccccc2)c2c(=O)nc[nH]c21 | DU-145 | > 100 µM (inactive)

---

# Test system: NCI-H522
# Assay Explanation: NCI tumour cell line growth inhibition, 48 h
Calls of active or inactive are those of the source. No stated cut-off is given here; in the data, active = GI50 up to about 1.1 µM and inactive = higher.
Classes used: yes (1) = active, no (0) = inactive

Compound | Classification
Cc1ccc(S(=O)(=O)n2c3ccc(Br)cc3c3nc4ccccc4nc32)cc1 | yes (1)
CC12Nc3ccccc3C1=C(c1ccccc1)CC1C(=O)OC(=O)C12 (stereo not given) | no (0)
COc1cc2c(oc(=O)c3c4occc4cc(OC)c23)c2cccc(OCc3ccccc3)c12 | no (0)
CN(C)CCC(CCN(C)C)=NOC(=O)c1ccccc1 | no (0)
CCCSc1ccc2[nH]c(/N=C/c3ccco3)cc2c1 | no (0)
NCCCNCCSSCCCCS(=O)O | no (0)
CN(C)c1c(C2OC(CO)C(O)C2O)c(=O)c1=O (stereo not given) | no (0)
COc1ccccc1NC(=S)N/N=C/c1cccc(C)n1 | yes (1)
CSc1c(C#N)c(O)nc(N)c1C(=O)Nc1ccc(C)cc1 | no (0)
CSCCCN(CCCSC)CCCSC | no (0)

---

# Test system: NCI-H23
# Assay Explanation: NCI tumour cell line growth inhibition, 48 h
The source made the active and inactive calls. Rule as the data show it: active = GI50 up to about 1.1 µM and inactive = higher.

Molecule | GI50
Cc1cc2c(c(C(=O)O)c1C)-c1cccc(Cl)c1C2=O | > 100 µM (inactive)
CCOC(=O)c1nc[nH]c1/N=N/N(C)N | > 100 µM (inactive)
COc1ccc(OC)c(N2C(=O)CSC2c2cc(OC)c(OC)c(OC)c2)c1 (stereo not given) | > 100 µM (inactive)
COc1ccccc1NC(=O)CC(=O)NNCC(=O)Nc1nnc(-c2ccccc2)o1 | > 100 µM (inactive)
COc1ccc(NC(C)=O)cc1N1C(=O)/C(=C\c2cccc(Oc3ccccc3)c2)S(=O)(=O)C1c1ccccc1 (stereo not given) | 60.3 µM (inactive)
COC1=C(Br)C(=O)c2nc(C)ccc2C1=O | 12.7 µM (inactive)
C=C1C(=O)OC2C1CC(OC(C)=O)/C(C)=C/CCC1(C)OC21 (stereo not given) | > 100 µM (inactive)
Cc1ccc([N+](=O)[O-])c2c(NCC(O)CO)ccnc12 (stereo not given) | 41.8 µM (inactive)
CCCCCC(O)C(O)CCC[C@H](O)[C@H]1CC[C@H]([C@H]2CC[C@H]([C@H](O)CCCCCCCCCCCCC3=C[C@H](C)OC3=O)O2)O1 (stereo not given in full) | 1.37 µM (inactive)
COC(=O)c1cc(C(=O)OC)cc(-c2ccc3c(c2)-c2nc4c(c(-c5ccc(OC)cc5)c2CC3)CCc2ccc(-c3cc(C(=O)OC)cc(C(=O)OC)c3)cc2-4)c1 | > 100 µM (inactive)
CCSSCS(C)(=O)=O | 32.9 µM (inactive)
CC1=NN(c2cccc(Cl)c2)C2(C1)SCC(=O)N2c1nc2ccccc2s1 (stereo not given) | 29.2 µM (inactive)
Cc1cccc(-c2cc(O)c3c(C)cc(C)nc3n2)c1 | 3.65 µM (inactive)
COC(=O)C1(C(=O)OC)N=C(C)OC1/C=C/c1ccccc1 (stereo not given) | > 100 µM (inactive)
CCN1C(=S)n2cccc2C1CC(=O)c1ccc(Cl)cc1 (stereo not given) | 13 µM (inactive)
O=[N+]([O-])c1ccc2nc3c(nc2c1)-c1c2ccccc2cc2cccc-3c12 | 3.61 µM (inactive)
COC1OC2COC(C)(C)OC2C2OC(C)(C)OC12 (stereo not given) | 82.4 µM (inactive)
NCCCNCCSSCc1ccccc1CSSCCNCCCN | > 100 µM (inactive)
O=c1[nH]nc(-c2ccccc2)n1/N=C/c1ccc([N+](=O)[O-])cc1 | > 53.2 µM (inactive)
N#C/C(=C\c1c[nH]c2ccccc12)C(=O)c1ccc(O)c(O)c1 | 45.8 µM (inactive)
COc1cc(C2C(C(=O)O)=C(CO)Oc3cc4c(cc32)OCO4)cc(OC)c1OC (stereo not given) | > 100 µM (inactive)
Oc1cc(CF)nc(S)n1 | > 100 µM (inactive)
Cc1ccc(Cc2n[nH]c(=O)n2/N=C\CC/C=N\n2c(Cc3ccc(C)cc3)n[nH]c2=O)cc1 | 26.9 µM (inactive)
Cc1ccc2c(=O)c3c(O)c4c(cc3n(C)c2c1)OC(C)(C)C=C4 | > 10 µM (inactive)
CSc1nc2c(c(=O)n1C)N=C(c1ccc([N+](=O)[O-])cc1)CC(c1ccccc1)N2 (stereo not given) | 99.8 µM (inactive)
Clc1ccc(Cl)c(Nc2ccnc(SCc3ccccc3)n2)c1 | > 100 µM (inactive)
O=C(NCCNCCCNC(=O)c1cc(-c2ccccc2)nc2ccccc12)c1cccc(O)c1O | 6.14 µM (inactive)
OCC(CN1CCCCC1)(CN1CCCCC1)CN1CCCCC1 | > 100 µM (inactive)
Cn1cc(C[C@@H](N)C(=O)O)c2ccccc21 [INDOXIMOD] | > 100 µM (inactive)
O=C(/C=C\Nc1ccccc1O)C(F)(F)F | 78.3 µM (inactive)
Cc1ccc(S(=O)(=O)Nc2ccccc2C=O)cc1 | 14.7 µM (inactive)
COc1cccc2cc(C(=O)Nc3ccccc3)c(=N)oc12 | > 69.2 µM (inactive)
C=CCOc1ccc(C(=N/NC(=O)c2ccccc2)/N=N/c2ccccc2)cc1OC | 73.8 µM (inactive)
O=c1oc2c(Br)c(O)c(Br)cc2c2ccccc12 | 15.6 µM (inactive)
O=C1/C(=C/c2ccc(Cl)cc2)CNC/C1=C\c1ccc(Cl)cc1 | 1.95 µM (inactive)
